Record form. Attribute: IC50. Fill in for each entry.
System: human gastric adenocarcinoma (SCM-1)
Assay: MTT cytotoxicity assay, SCM-1
Assay type: cell-based
Conditions: read-out: IC50 SCM-1

Hi! Can you tell me IC50 for each of these compounds?
1. COc1cc(C=O)cc(OC)c1O [Compound 14, 4-hydroxy-3,5-dimethoxybenzaldehyde]
2. CC(=O)O[C@H]1C(=O)[C@@]2(C)[C@H]([C@H](OC(=O)c3ccccc3)[C@]3(O)C[C@H](OC(=O)[C@H](O)[C@@H](NC(=O)c4ccccc4)c4ccccc4)C(C)=C1C3(C)C)[C@]1(OC(C)=O)CO[C@@H]1C[C@@H]2O

[reply]
["> 10 µM", "0.07 µM"]

[ask] Under human gastric adenocarcinoma (SCM-1): report IC50 of CC[C@H](CC[C@@H](C)[C@H]1CC[C@H]2[C@@H]3[C@H](O)C=C4C[C@@H](O)CC[C@]4(C)[C@H]3CC[C@]12C)C(C)C .
[reply] > 30 µM
